- ASSAY NOTES: log P by HPLC on reversed-phase C18 columns, OECD Guideline 117
- Assay type: physicochemical
- ASSAY SETUP: acidic range, pH 2.7; NMR peak list table
READOUT LABEL: logP [a]

COMPOUND | READOUT LABEL | MEASUREMENT
O=c1c2cn(-c3cccnc3)nc2ncn1-c1cccc([S+]([O-])CC(F)(F)F)c1 (stereo not shown) | logP [a] | 1.46
O=c1c2cn(-c3cccnc3)nc2ncn1-c1cc(SCC(F)(F)F)c(Cl)cc1F | logP [a] | 2.70
O=c1c2cn(-c3ccc[n+]([O-])c3)nc2ncn1-c1cc([S+]([O-])CC(F)(F)F)c(Cl)cc1Cl (stereo not shown) | logP [a] | 1.66
O=c1c2cn(-c3cccnc3)nc2ncn1-c1cccc([S+]([O-])CC2CC2)c1 (stereo not shown) | logP [a] | 1.27

----------
- ASSAY NOTES: log P by HPLC on reversed-phase C18 columns, OECD Guideline 117
- Format: physicochemical
- ASSAY SETUP: acidic range, pH 2.7; Table 2
READOUT LABEL: logP [a]

COMPOUND | MEASUREMENT
Cc1ccc(-n2cnc3nn(-c4cccnc4)cc3c2=O)cc1[S+]([O-])CC(F)(F)F (centres unmarked) [I-1-8] | 1.65
O=c1c2cn(-c3cccnc3)nc2ncn1-c1cc([S+]([O-])CC(F)(F)F)ccc1F (centres unmarked) [I-1-10] | 1.53
CSc1cccc(-n2cnc3nn(-c4cccnc4)cc3c2=O)c1 [I-1-6] | 1.82
Cc1ccc(-n2cnc3nn(-c4cccnc4)cc3c2=O)cc1SCC(F)(F)F [I-1-7] | 2.51
O=c1c2cn(-c3cccnc3)nc2ncn1-c1cc(SCC(F)(F)F)ccc1F [I-1-9] | 2.32

----------
- ASSAY NOTES: log P by HPLC on reversed-phase C18 columns, OECD Guideline 117
- Type: physicochemical
- ASSAY SETUP: neutral range, pH 7.8; Table 2

MOLECULE | logP [b]
O=c1c2cn(-c3cccnc3)nc2ncn1-c1cc([S+]([O-])CC(F)(F)F)ccc1F (centres unmarked) | 1.55
CSc1cccc(-n2cnc3nn(-c4cccnc4)cc3c2=O)c1 | 1.78
O=c1c2cn(-c3cccnc3)nc2ncn1-c1cc(SCC(F)(F)F)ccc1F | 2.35
Cc1ccc(-n2cnc3nn(-c4cccnc4)cc3c2=O)cc1[S+]([O-])CC(F)(F)F (centres unmarked) | 1.67
Cc1ccc(-n2cnc3nn(-c4cccnc4)cc3c2=O)cc1SCC(F)(F)F | 2.56

----------
Measured logP [a] by item
- ASSAY NOTES: log P by HPLC on reversed-phase C18 columns, OECD Guideline 117
- Type: physicochemical
- ASSAY SETUP: acidic range, pH 2.7; NMR peak list table

COMPOUND | logP [a]
Cc1cc(F)c(-n2c(C)nc3nn(-c4cccnc4)cc3c2=O)cc1SCC(F)(F)F [I-1-22] | 2.74
CSc1ccccc1-n1cnc2nn(-c3cccnc3)cc2c1=O [I-2-23] | 1.65
Cc1cc(C)c([S+]([O-])CC(F)(F)F)cc1-n1cnc2nn(-c3cccnc3)cc2c1=O (stereo not drawn) [I-1-20] | 1.84
Cc1cc(C)c(-n2cnc3nn(-c4cccnc4)cc3c2=O)cc1SCC(F)(F)F [I-1-17] | 2.75
O=c1c2cn(-c3cccnc3)nc2ncn1-c1cccc(SCC(F)(F)F)c1 [I-1-12] | 2.25
O=c1c2cn(-c3cccnc3)nc2ncn1-c1cc([S+]([O-])CC(F)(F)F)c(Cl)cc1F (stereo not drawn) [I-1-18] | 2.02
O=c1c2cn(-c3cccnc3)nc2ncn1-c1cc(SCC(F)(F)F)c(Cl)cc1Cl [I-1-14] | 2.91
O=c1c2cn(-c3cccnc3)nc2ncn1-c1cccc(SCC2CC2)c1 [I-1-11] | 2.50
O=c1c2cn(-c3cccnc3)nc2ncn1-c1cc([S+]([O-])CC(F)(F)F)c(Cl)cc1Cl (stereo not drawn) [I-1-19] | 2.17

----------
- ASSAY NOTES: log P by HPLC on reversed-phase C18 columns, OECD Guideline 117
- Format: physicochemical
- ASSAY SETUP: neutral range, pH 7.8; NMR peak list table

COMPOUND | logP [b]
O=c1c2cn(-c3cccnc3)nc2ncn1-c1cc(SCC(F)(F)F)c(Cl)cc1F | 2.65
O=c1c2cn(-c3cccnc3)nc2ncn1-c1cccc(SCC(F)(F)F)c1 | 2.18
CSc1ccccc1-n1cnc2nn(-c3cccnc3)cc2c1=O | 1.67
O=c1c2cn(-c3cccnc3)nc2ncn1-c1cc(SCC(F)(F)F)c(Cl)cc1Cl | 2.83
O=c1c2cn(-c3cccnc3)nc2ncn1-c1cccc([S+]([O-])CC(F)(F)F)c1 (centres unmarked) | 1.41

Each recorded value in this set is attributed to patent US9920059B2.
